This listing pairs compounds with measured IC50.
Study target: human orexin-2 receptor (Homo sapiens (Human))
Assay: FLIPR Ca2+ flux assay, orexin-2 receptor
Study conditions: CHO cells expressing human orexin-2 receptor; agonist 70 pM Ala-6,12 orexin-A; read-out: hOX2R FLIPR IC50
Quantity name: IC50

COc1ccnc(O[C@@H]2CC[C@@H](C)N(C(=O)c3ccccc3C3CC3)C2)c1
11 nM
C[C@@H]1CC[C@@H](Oc2cc(OCC(F)(F)F)ccn2)CN1C(=O)c1ccccc1-n1ncnn1
38 nM
COc1ccnc(O[C@@H]2CC[C@@H](C)N(C(=O)c3ccccc3-n3nccn3)C2)c1
12.5 nM
COc1ccnc(O[C@@H]2CC[C@@H](C)N(C(=O)c3ccccc3-n3nccn3)C2)c1C
9.7 nM
CCOc1ccnc(O[C@@H]2CC[C@@H](C)N(C(=O)c3ccsc3-c3ncccn3)C2)c1
26 nM

---

Study target: human orexin-2 receptor (Homo sapiens (Human), UniProt O43614)
Sequence (O43614 whole entry): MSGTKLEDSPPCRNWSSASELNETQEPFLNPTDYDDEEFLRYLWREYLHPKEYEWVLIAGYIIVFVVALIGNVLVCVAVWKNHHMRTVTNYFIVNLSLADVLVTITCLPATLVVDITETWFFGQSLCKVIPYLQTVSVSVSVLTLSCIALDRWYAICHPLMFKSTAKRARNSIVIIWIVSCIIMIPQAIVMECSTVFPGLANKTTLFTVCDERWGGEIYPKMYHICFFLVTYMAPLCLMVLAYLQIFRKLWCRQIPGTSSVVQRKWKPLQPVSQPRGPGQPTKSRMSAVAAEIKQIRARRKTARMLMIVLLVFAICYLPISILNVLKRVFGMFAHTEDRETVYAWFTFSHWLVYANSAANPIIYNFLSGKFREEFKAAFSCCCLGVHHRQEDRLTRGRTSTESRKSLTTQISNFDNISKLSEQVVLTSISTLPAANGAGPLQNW
Assay: FLIPR Ca2+ flux assay, orexin-2 receptor
Study conditions: CHO cells expressing human orexin-2 receptor; agonist 70 pM Ala-6,12 orexin-A; read-out: hOX2R FLIPR IC50
Protocol: The utility of the compounds in accordance with the present invention as orexin receptor OX1R and/or OX2R antagonists may be readily determined without undue experimentation by methodology well known in the art, including the “FLIPR Ca^2+ Flux Assay” (Okumura et al., Biochem. Biophys. Res. Comm. 280:976-981, 2001). In a typical experiment the OX1 and OX2 receptor antagonistic activity of the compounds of the present invention was determined in accordance with the following experimental method. […]
Quantity name: IC50

C[C@@H]1CC[C@@H](Oc2cc(OCC(F)F)ccn2)CN1C(=O)c1ccccc1-c1ncccn1
33 nM
C[C@@H]1CC[C@@H](Oc2cc(OCC(F)F)ccn2)CN1C(=O)c1ccccc1-n1ncnn1
29 nM
COc1ccc(C(=O)N2C[C@H](Oc3cc(OC(C)C)ccn3)CC[C@H]2C)c(-n2nccn2)c1
136 nM
COc1ccnc(O[C@@H]2CC[C@@H](C)N(C(=O)c3ccc(OC)nc3-n3nccn3)C2)c1
94.5 nM

---

This listing pairs compounds with measured pIC50.
Study target: hOX1R (Homo sapiens, UniProt O43613)
Assay: FLIPR Ca2+ flux assay, orexin-1 receptor
Study conditions: CHO cells expressing orexin-1 receptor; agonist 70 pM Ala-6,12 orexin-A
pIC50: −log10 of the molar value.
Quantity name: pIC50

COc1ccnc(O[C@@H]2CC[C@@H](C)N(C(=O)c3ccccc3C3CC3)C2)c1
6.03
COc1ccnc(O[C@@H]2CC[C@@H](C)N(C(=O)c3ccccc3-n3nccn3)C2)c1C(C)=O
6.01
COc1ccc(C(=O)N2C[C@H](Oc3cc(OC(C)C)ccn3)CC[C@H]2C)c(-n2nccn2)c1
5.00

---

This listing pairs compounds with measured pIC50.
Study target: UniProtKB O43613
Assay: FLIPR Ca2+ flux assay, orexin-1 receptor
Study conditions: CHO cells expressing orexin-1 receptor; agonist 70 pM Ala-6,12 orexin-A
pIC50: −log10 of the molar value.
Quantity name: pIC50

C[C@@H]1CC[C@@H](Oc2cc(OC(F)F)ccn2)CN1C(=O)c1ccccc1C1(C#N)CC1
5.94
COc1ccnc(O[C@@H]2CC[C@@H](C)N(C(=O)c3ccccc3-n3nccn3)C2)c1F
5.00
COc1ccnc(O[C@@H]2CC[C@@H](C)N(C(=O)c3ccc(OC)nc3-c3ccccc3)C2)c1
6.13
C[C@@H]1CC[C@@H](Oc2cc(OCC(F)(F)F)ccn2)CN1C(=O)c1ccccc1-n1nccn1
5.87
